Target: Phosphodiesterase 4 (Homo sapiens, UniProt P27815+Q08499+Q07343+Q08493)
Assay: Inhibition of phosphodiesterase 4
Type: protein assay
Kindly note that classification relies on IC50 with these boundaries: lo = under 0.5 nM, med = from 0.5 nM up to 1 nM, hi = 1 nM and over

>>> print(df.to_string())
                         compound_structure  cat
0  COc1cc2c(cc1OC)C(c1ccnc(-n3ccc4c(OCc5cccnc5)cccc4c3=O)c1)=N[C@H](CO)C2.Cl   lo
1  COc1cc2cc(CO)nc(-c3ccnc(-n4nc(-c5cccs5)c5ccccc5c4=O)c3)c2cc1OC.Cl   lo
2  COc1cc2c(cc1OC)C(c1ccnc(-n3nc(-c4cncnc4)c4ccccc4c3=O)c1)=N[C@H](CO)C2.Cl   hi
3  COc1cc2c(cc1OC)C(c1ccnc(-n3nc(Cc4cccnc4)c4ccccc4c3=O)c1)=N[C@H](CO)C2.Cl   hi
4  COc1cc2nc(CO)c(CO)c(-c3ccnc(-n4nc(-c5cccnc5)c5ccccc5c4=O)c3)c2cc1OC.Cl   hi
5  COc1cc2cc(CO)nc(-c3ccnc(-n4nc(-c5nccs5)c5ccccc5c4=O)c3)c2cc1OC.Cl   lo
6  COc1cc2cc(CO)nc(-c3ccnc(-n4nc(-c5cccnc5)c5ccccc5c4=O)c3)c2cc1OC.Cl  med
7  COc1cc2cc(CO)c(CO)c(-c3ccnc(-n4nc(-c5cccnc5)c5ccccc5c4=O)c3)c2cc1OC.Cl  med

====

Biological target: Phosphodiesterase 4 (Homo sapiens, UniProt P27815+Q08499+Q07343+Q08493)
Test: Inhibition of rolipram binding to phosphodiesterase 4
Format: protein assay
Recorded measurements of log10 Ki, one per entry
parameter: log10 Ki (log10 of the value in nM)

                         compound_structure  reading
0  COc1cc2c(cc1OC)C(c1ccnc(-n3nc(-c4cccnc4)c4ccccc4c3=O)c1)=N[C@H](CO)C2.Cl     0.81
1  COc1cc2cc(CO)cc(-c3ccnc(-n4nc(-c5cccnc5)c5ccccc5c4=O)c3)c2cc1OC.Cl     0.48
2  COc1cc2nc(CO)c(CO)c(-c3ccnc(-n4nc(-c5cccnc5)c5ccccc5c4=O)c3)c2cc1OC.Cl     2.08
3  COc1cc2c(cc1OC)C(c1ccnc(-n3ccc4c(OCCN5CCOCC5)cccc4c3=O)c1)=N[C@H](CO)C2.Cl     0.26
4  COc1cc2c(cc1OC)C(c1ccnc(-n3nc(-c4cncnc4)c4ccccc4c3=O)c1)=N[C@H](CO)C2.Cl     0.73
5  COc1cc2c(cc1OC)C(c1ccnc(-n3nc(Cc4cccnc4)c4ccccc4c3=O)c1)=N[C@H](CO)C2.Cl     0.49
6  COc1cc2cc(CO)nc(-c3ccnc(-n4nc(-c5cccnc5)c5ccccc5c4=O)c3)c2cc1OC.Cl     0.15
7  COc1cc2cc(CO)nc(-c3ccnc(-n4nc(-c5cccs5)c5ccccc5c4=O)c3)c2cc1OC.Cl     0.15
8  COc1cc2c(cc1OC)C(c1ccnc(-n3ccc4c(OCc5cccnc5)cccc4c3=O)c1)=N[C@H](CO)C2.Cl     0.18
9  COc1cc2cc(CO)nc(-c3ccnc(-n4nc(-c5nccs5)c5ccccc5c4=O)c3)c2cc1OC.Cl     0.23
